# Tested on: ERBB2
# Experimental conditions: concentration: 1 μM, replicates: in singlicate; n = 1;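 also: KINOMEscan kinase panel screen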
# %Inh annotations
Record the value in %, omitting the unit from your answer.

# Compound, Measure unit, %Inh
measured = [
    ("COc1nccc(-c2c(-c3ccc(F)cc3)ncn2CCCN2CCOCC2)n1", "%", 40),
]

Input: I'd like to know its %Inh. The compound in question is COC(=O)C(NC(=O)NC1CCN(c2ccnc(Nc3ccc(F)cc3)n2)C1)c1ccccc1 (stereo not shown)
Output: 20

Input: Now this one: Cn1cncc1C(=O)NC1CCN(c2ccnc(Nc3ccc(F)cc3)n2)C1 (stereo not shown)
Output: 0

###

# Tested on: EPHB2
# Experimental conditions: concentration: 1 μM, replicates: in singlicate; n = 1
# %Inh annotations
Record the value in %, omitting the unit from your answer.

# Compound, %Inh (%)
rows = [
    ("O=C(Nc1n[nH]c2nc(-c3cccs3)c(Br)cc12)C1CCCC1 [SB-743341]", 4),
    ("COc1ccc(Nc2nccc(NCCNC(=O)Nc3cc(C)ccc3C)n2)cc1 [GSK1379899]", 0),
    ("O=C1NC(=O)C(c2ccc(Cl)cc2)=C1Nc1cccc(Cl)c1 [SB-317651]", 20),
    ("Fc1ccc(-c2nc[nH]c2-c2ccncc2)cc1 [SB-217360]", 0),
    ("Nc1cccc(-c2ccc3c(N)n[nH]c3c2)n1 [GSK2192730]", 0),
    ("c1ccc(-c2ccnc3[nH]ccc23)cc1 [SB-693578]", 0),
]

Input: # get_value(readout= %Inh, system= EPHB2) for COc1cccc(NC(=O)Nc2ccc(C)c(-c3ccc(C(=O)Nc4ccncc4)cc3)c2)c1 [GSK1398474]
Output: 4

Input: Now this one: NS(=O)(=O)c1cccc(N/C=C2\C(=O)Nc3ccc(S(=O)(=O)Cc4c(Cl)cccc4Cl)cc32)c1 [GSK398099]
Output: 14

Input: Now this one: FC(F)(F)c1ccccc1-c1cc(-c2c[nH]nc2-c2ccccn2)ccn1 [GW679396]
Output: 7

###

# Tested on: JNK2
# Construct: gene MAPK9
# Experimental conditions: concentration: 1 μM, replicates: in singlicate; n = 1
Lab note: compare %Inh against 10%. Equal or greater, write class 1. Smaller, write class 0.

Answered examples (5):
# Compound, Cat
data = [
    ("CNc1cc(-c2ccc3c(N)n[nH]c3c2)nc(N)n1", "class 0"),
    ("CNc1nc(-c2ccc3c(N)n[nH]c3c2)cc(N2C[C@@H](C(=O)Nc3ccccc3)CC[C@H]2C)n1", "class 1"),
    ("CNCc1ccc2nc(NC(=O)c3ccc(C(C)(C)C)cc3)cn2c1", "class 0"),
    ("Cc1ccc(NC(=O)c2ccc(Cl)cc2)cc1-c1ccc(C(=O)Nc2ccncc2)cc1", "class 1"),
    ("Cl.Cl.Cl.N#Cc1ccc(CCNc2nccc(-c3cccc(CN4CCNCC4)c3)n2)cc1", "class 0"),
]

Input: Could you verify whether the entry `CSc1ccc(-c2nc3n(c2-c2ccncc2)CCC3)cc1` shows %Inh of no less than 10%?
Output: class 1

Input: Now this one: COc1ccc(Nc2nccc(N3CCC(NC(=O)C(C)c4ccc(Cl)cc4)CC3)n2)cc1 (centres unmarked)
Output: class 1

Input: Now this one: `CS(=O)(=O)CCNCc1nc(-c2ccc3ncnc(Nc4ccc5c(cnn5Cc5ccccc5)c4)c3c2)cs1.Cl.Cl`
Output: class 0

###

# Test system: ROS1
# Experimental conditions: concentration: 1 μM, replicates: in singlicate; n = 1
# %Inh annotations
Record the value in %, omitting the unit from your answer.

Solved cases (4 shown):
# Molecule, %Inh, %
measured = [
    ("O=c1cc(N2CCOCC2)nc2n(Cc3ccccc3F)ccn12 [GSK2297428]", 47),
    ("Cc1ccc(-c2nc(Nc3ccncc3)c3ccccc3n2)s1 [GSK189015]", 0),
    ("Nc1cccc(-c2ccc3c(N)n[nH]c3c2)n1 [GSK2192730]", 0),
    ("Cc1ccccc1-c1cc(-c2c[nH]nc2-c2ccccn2)ccn1 [GW680061]", 0),
]

Input: # get_value(readout= %Inh, system= ROS1) for COc1nccc(-c2c(-c3ccc(F)cc3)ncn2CCCN2CCOCC2)n1 [SB-282852]
Output: 0

Input: Now this one: Cc1ccccc1Cn1ccn2c(=O)cc(N3CCOCC3)nc12 [GSK2269905]
Output: 0

Input: Now this one: Nc1nccc(-c2c(-c3ccc(F)cc3)ncn2C2CCN(Cc3ccccc3)CC2)n1 [SB-219980]
Output: 10

Input: Now this one: COc1cccc(CNC(=O)NC2CCN(c3ccnc(Nc4ccc(F)cc4)n3)C2)c1 (stereo not drawn) [GSK1379723]
Output: 0

Input: Now this one: `COc1ccc(CSc2nnc(-c3ccc4nccn4c3)o2)cc1C(F)(F)F`
Output: 3

###

# Test system: FGFR2
# Experimental conditions: concentration: 1 μM, replicates: in singlicate; n = 1
Lab note: compare %Inh against 2%. Equal or greater, write true (1). Smaller, write false (0).

Answered examples (4):
# Molecule, Cat
records = [
    ("CC(=O)c1cccc(NC(=O)NC2CCN(c3ccnc(Nc4ccc(F)cc4)n3)C2)c1 (stereo not drawn) [GSK1379710]", "false (0)"),
    ("COc1ccc(Nc2nccc(N3CCC(NC(=O)C(C)c4ccc(Cl)cc4)C3)n2)cc1 (stereo not drawn) [GSK1379735]", "true (1)"),
    ("COc1ccc(Nc2nccc(N3CCC(NC(=O)C(C)c4ccc(Cl)cc4)CC3)n2)cc1 (stereo not drawn) [GSK1379812]", "false (0)"),
    ("COc1nccc(-c2c(-c3ccc(F)cc3)ncn2CCCN2CCOCC2)n1 [SB-282852]", "false (0)"),
]

Input: Could you verify whether the entry Cc1ccccc1-c1cc(-c2c[nH]nc2-c2ccccn2)ccn1 [GW680061] shows %Inh of no less than 2%?
Output: false (0)

Input: Now this one: O=C(Nc1n[nH]c2nc(-c3cccs3)c(Br)cc12)C1CCCC1 [SB-743341]
Output: false (0)

###

# %Inh annotations
# Test system: LYN
# Experimental conditions: concentration: 1 μM, replicates: in singlicate; n = 1
Record the value in %, omitting the unit from your answer.

Solved cases (2 shown):
# Compound, %Inh (%)
rows = [
    ("c1ccc(-c2ccnc3[nH]ccc23)cc1 [SB-693578]", 0),
    ("COc1ccc(Nc2nccc(N3CCC(NC(=O)C(C)c4ccc(Cl)cc4)C3)n2)cc1 (stereo not drawn) [GSK1379735]", 0),
]

Please turn your attention to the following entry.
Input: I'd like to know its %Inh. The compound in question is O=c1cc(N2CCOCC2)nc2n(Cc3cccc(Cl)c3Cl)c3ccccc3n12 [GSK2299009]
Output: 0

###

# %Inh annotations
# System: PIK3C2G
# Experimental conditions: concentration: 1 μM, replicates: in singlicate; n = 1
Record the value in %, omitting the unit from your answer.

Solved cases (3 shown):
# Compound, Measure unit, %Inh
records = [
    ("COc1cccc(CNC(=O)NC2CCN(c3ccnc(Nc4ccc(F)cc4)n3)C2)c1 (stereo not drawn)", "%", 0),
    ("Nc1cccc(-c2ccc3c(N)n[nH]c3c2)n1", "%", 0),
    ("CNc1cc(-c2ccc3c(N)n[nH]c3c2)nc(N)n1", "%", 0),
]

Input: # get_value(readout= %Inh, system= PIK3C2G) for Cn1cncc1C(=O)NC1CCN(c2ccnc(Nc3ccc(F)cc3)n2)C1 (stereo not drawn)
Output: 0

Input: Now this one: `CSc1ccc(-c2nc3n(c2-c2ccncc2)CCC3)cc1`
Output: 21

Input: Now this one: `CN1c2ccc(-c3ccc(C(N)=O)cc3)cc2-c2[nH]ncc2S1(=O)=O`
Output: 0

Input: Now this one: `Fc1ccc(-c2nn3cccc(F)c3c2-c2ccncc2)cc1`
Output: 15

Input: Now this one: `CNCc1ccc2nc(NC(=O)c3ccc(C(C)(C)C)cc3)cn2c1`
Output: 0

Input: Now this one: `Cc1ccc(NC(=O)Nc2ccc(Cl)cc2)cc1-c1ccc(C(=O)Nc2ccncc2)cc1`
Output: 0

Input: Now this one: COc1ccc(Nc2nccc(N3CCC(NC(=O)C(C)c4ccc(Cl)cc4)CC3)n2)cc1 (stereo not drawn)
Output: 0

Input: Now this one: `Cc1ccc(NC(=O)Nc2ccc(Cl)c(C(F)(F)F)c2)cc1-c1ccc(C(=O)Nc2ccncc2)cc1`
Output: 2

Input: Now this one: `NS(=O)(=O)c1cccc(N/C=C2\C(=O)Nc3ccc(S(=O)(=O)Cc4c(Cl)cccc4Cl)cc32)c1`
Output: 0

Input: Now this one: `Cc1ccc(-c2nc(Nc3ccncc3)c3ccccc3n2)s1`
Output: 0

Input: Now this one: `COc1ccc(Nc2nccc(-c3ccc(NC(=O)c4cc5cc(F)ccc5[nH]4)cc3)n2)cc1`
Output: 0

Input: Now this one: COc1ccc(Nc2nccc(N3CCC(NC(=O)C(C)c4ccc(Cl)cc4)C3)n2)cc1 (stereo not drawn)
Output: 0
